- measured-target: T1, human GIP receptor (human, UniProt P48546 22-466)
- T1 sequence (looked up): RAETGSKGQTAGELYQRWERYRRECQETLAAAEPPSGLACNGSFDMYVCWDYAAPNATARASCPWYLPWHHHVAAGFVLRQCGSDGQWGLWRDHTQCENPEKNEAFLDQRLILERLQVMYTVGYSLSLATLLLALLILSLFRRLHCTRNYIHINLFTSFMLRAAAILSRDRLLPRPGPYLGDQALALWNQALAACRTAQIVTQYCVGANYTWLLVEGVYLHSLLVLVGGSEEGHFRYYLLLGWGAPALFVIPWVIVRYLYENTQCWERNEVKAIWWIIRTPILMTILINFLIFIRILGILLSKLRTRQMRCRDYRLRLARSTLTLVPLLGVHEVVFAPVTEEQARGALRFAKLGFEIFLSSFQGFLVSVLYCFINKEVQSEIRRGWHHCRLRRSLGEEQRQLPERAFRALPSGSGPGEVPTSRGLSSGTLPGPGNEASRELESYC
- procedure-details: cell-based or functional assay
*1 amine or outer side, *2 acyl side, *3 side chain or, on linkers, in order; H or OH if unused. Where no end group is shown, it is not given here. Side-chain parts run from the residue outwards. [ ]: non-standard residue; d: D form. The star is where a group is joined. C18 diacid = O=C(O)CCCCCCCCCCCCCCCCC(=O)*; C16 diacid = O=C(O)CCCCCCCCCCCCCCC(=O)*; γGlu = O=C(O)[C@H](CCC(=O)[*:2])N[*:1]; Glutaryl = O=C(CCCC(=O)[*:2])[*:1]; Nle = CCCC[C@H](N)C(=O)O; AEEA = NCCOCCOCC(=O)O; Aib = CC(C)(N)C(=O)O
cAMP antagonism listing for selected binders.
# value in nM; strip the unit string

Some binders with recorded cAMP antagonism:
binder: [βGlu]GTFISDYSIAMDKIK(C16 diacid)QQDFVNWLLAQKPSSGAPPPS-OH [AT676]
value-units: nM
cAMP antagonism: 2.33
//
binder: EGTFISTYK([γGlu-C16 diacid])IALDKIHQQDFVEWLLAQKPSSGAPPPS-OH [AT647]
value-units: nM
cAMP antagonism: 18.8
//
binder: [βGlu]GTFISDYSIA[Nle]DKIK([AEEA-AEEA-γGlu-C18 diacid])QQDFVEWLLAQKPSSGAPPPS-OH [AT701]
value-units: nM
cAMP antagonism: 12.6
//
binder: EGTFISDYSI[Aib]MDKIK(C16 diacid)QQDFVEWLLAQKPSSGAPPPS-OH [AT665]
value-units: nM
cAMP antagonism: 0.15

input: Given the binder Glutaryl-GTFISDYSIA[Nle]DKIK([AEEA-AEEA-γGlu-C18 diacid])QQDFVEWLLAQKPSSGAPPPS-OH [AT702] , what is its reported cAMP antagonism?
output: 3.55
